Where do the numbers come from? From patent US12351574B2.

We begin with a simple list: items and their reported EMAX at GIRK1/4.
target system: GIRK1/4 (Homo sapiens, UniProt P48544+P48549)
assay procedure: two-electrode voltage clamp (TEVC) in Xenopus oocytes expressing GIRK1/4 wild-type
Assay type: cell-based
Parameters: expressed in transfected cells; host or cells: Xenopus laevis oocytes (cRNA injection)
stated conditions: current normalized to basal current
Keep the answer to the number alone.

Please review the entries below; each comes with its answer.
Cc1cc(NC(=O)Nc2ccc(F)s2)n(-c2ccccc2)n1 ... 2.16
Cc1cc(NC(=O)Nc2cccs2)n(-c2ccccc2)n1 ... 1.95
Cc1cc(NC(=O)Nc2ccc(F)c(F)c2)n(-c2ccccc2)n1 [ML297, reference compound] ... 1.60

Request: State the recorded EMAX at GIRK1/4 for this entry: "Cc1cc(NC(=O)Nc2cc(Br)cs2)n(-c2ccccc2)n1"
Result: 1.63

###

target system: GIRK1/2 (UniProt P48542+P48549)
assay procedure: two-electrode voltage clamp (TEVC) in Xenopus oocytes expressing GIRK1/2 wild-type
Format: cell-based, human GIRK1, mouse GIRK2
Parameters: expressed in transfected cells; host or cells: Xenopus laevis oocytes (cRNA injection)
stated conditions: TEVC, Xenopus oocytes, GIRK1/2 wild-type
We begin with a simple list: items and their reported log10(EC50).
Please interpret these as log10 of EC50 where EC50 is in µM.

Cc1cc(NC(=O)Nc2ccc(Br)s2)n(-c2ccccc2)n1 [GAT1508] ... -0.43

Request: What value of log10(EC50) on GIRK1/2 (UniProt P48542+P48549) does Cc1cc(NC(=O)Nc2cccs2)n(-c2ccccc2)n1 [GAT1506] have?
Result: 1.23

###

target system: GIRK1/4(T-V) (Homo sapiens, UniProt P48544+P48549, T94V)
assay procedure: TEVC in Xenopus oocytes, single mutant GIRK1/4(T-V)
stated conditions: GIRK1/4(T-V) single mutant
property: EC50 (nM)
All answers are understood in nM, so give the number only.

Request: What value of EC50 on GIRK1/4(T-V) (Homo sapiens, UniProt P48544+P48549, T94V) does "Cc1cc(NC(=O)Nc2ccc(Br)s2)n(-c2ccccc2)n1" have?
Result: 500

###

target system: GIRK1/2 (UniProt P48542+P48549)
assay procedure: two-electrode voltage clamp (TEVC) in Xenopus oocytes expressing GIRK1/2 wild-type
Type: cell-based, human GIRK1, mouse GIRK2
Parameters: expressed in transfected cells; host or cells: Xenopus laevis oocytes (cRNA injection)
stated conditions: current normalized to basal current
property: EMAX at GIRK1/2
Keep the answer to the number alone.

Cc1cc(NC(=O)Nc2cc(Br)cs2)n(-c2ccccc2)n1 [GAT1502] ... 2.70
Cc1cc(NC(=O)Nc2ccc(Cl)s2)n(-c2ccccc2)n1 [GAT1501] ... 2.797
Cc1cc(NC(=O)Nc2ccc(C)s2)n(-c2ccccc2)n1 [GAT1521] ... 2.36
Cc1cc(NC(=O)Nc2cccs2)n(-c2ccccc2)n1 [GAT1506] ... 3.9
Cc1cc(NC(=O)Nc2ccc(F)c(F)c2)n(-c2ccccc2)n1 [ML297, reference compound] ... 2.87

As a next step, examine the compound that follows.
Request: State the recorded EMAX at GIRK1/2 for this entry: Cc1cc(NC(=O)Nc2ccc(F)s2)n(-c2ccccc2)n1 [GAT1575]
Result: 4.92

###

target system: GIRK1/4(V-I) (Homo sapiens, UniProt P48544+P48549, V92I)
assay procedure: TEVC in Xenopus oocytes, single mutant GIRK1/4(V-I)
stated conditions: GIRK1/4(V-I) single mutant
property: pEC50
pEC50 (log units): -log10 of the concentration in mol/L.

Request: What value of pEC50 on GIRK1/4(V-I) (Homo sapiens, UniProt P48544+P48549, V92I) does "Cc1cc(NC(=O)Nc2ccc(Br)s2)n(-c2ccccc2)n1" have?
Result: 6.28

###

target system: GIRK1/4(VT-IV) (Homo sapiens, UniProt P48544+P48549, T94V/V92I)
Sequence (P48549 1-501): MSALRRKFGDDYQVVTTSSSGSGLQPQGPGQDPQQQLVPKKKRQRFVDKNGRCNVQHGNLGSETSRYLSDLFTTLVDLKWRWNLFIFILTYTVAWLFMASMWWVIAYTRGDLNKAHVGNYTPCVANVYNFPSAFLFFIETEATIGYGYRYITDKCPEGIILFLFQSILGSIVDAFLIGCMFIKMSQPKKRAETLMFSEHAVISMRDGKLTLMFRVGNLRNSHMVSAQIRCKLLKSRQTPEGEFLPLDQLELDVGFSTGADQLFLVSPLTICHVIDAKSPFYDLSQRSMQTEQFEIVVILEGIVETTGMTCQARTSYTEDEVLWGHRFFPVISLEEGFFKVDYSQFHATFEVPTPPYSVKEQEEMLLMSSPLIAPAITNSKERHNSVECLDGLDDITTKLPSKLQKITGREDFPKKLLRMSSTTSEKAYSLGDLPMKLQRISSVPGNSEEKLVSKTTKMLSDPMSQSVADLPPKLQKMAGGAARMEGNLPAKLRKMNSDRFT
Sequence (P48544 1-419 V92I/T94V): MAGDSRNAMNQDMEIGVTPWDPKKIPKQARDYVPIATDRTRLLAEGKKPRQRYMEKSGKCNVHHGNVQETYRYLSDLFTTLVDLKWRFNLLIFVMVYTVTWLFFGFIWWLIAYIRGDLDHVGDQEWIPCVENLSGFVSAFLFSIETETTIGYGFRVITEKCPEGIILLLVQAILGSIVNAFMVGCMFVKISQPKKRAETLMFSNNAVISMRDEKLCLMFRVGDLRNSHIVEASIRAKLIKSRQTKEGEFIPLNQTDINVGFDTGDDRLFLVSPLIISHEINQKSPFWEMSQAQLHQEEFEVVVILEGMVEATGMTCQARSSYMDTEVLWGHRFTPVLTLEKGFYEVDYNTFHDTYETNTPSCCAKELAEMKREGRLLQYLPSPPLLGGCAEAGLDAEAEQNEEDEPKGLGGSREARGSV
assay procedure: TEVC in Xenopus oocytes, double mutant GIRK1/4(VT-IV)
stated conditions: GIRK1/4(VT-IV) double mutant
property: EC50 (µM)
All answers are understood in µM, so give the number only.

Request: State the recorded EC50 for this entry: "Cc1cc(NC(=O)Nc2ccc(Br)s2)n(-c2ccccc2)n1"
Result: 0.55

###

target system: GIRK1/4 (Homo sapiens, UniProt P48544+P48549)
assay procedure: two-electrode voltage clamp (TEVC) in Xenopus oocytes expressing GIRK1/4 wild-type
Assay type: cell-based
Set-up: expressed in transfected cells; host or cells: Xenopus laevis oocytes (cRNA injection)
stated conditions: TEVC, Xenopus oocytes, GIRK1/4 wild-type
Method: Molecular biology: For Xenopus oocyte expression, human GIRK1 and human GIRK4 cDNAs were subcloned into pGEMHE. For mammalian expression, human GIRK1 and human GIRK4 cDNAs were subcloned into pcDNA3 and pcDNA3.1/V5-His B, respectively (Invitrogen). Mouse GIRK2 cDNA was subcloned in the dual-function vector, pXoom. […] Electrophysiology of oocytes: Whole-oocyte currents were measured by conventional two-electrode voltage clamp (TEVC) with a GeneClamp 500 amplifier (Axon Instruments). […]
property: pEC50
pEC50 (log units): -log10 of the concentration in mol/L.

Cc1cc(NC(=O)Nc2cccs2)n(-c2ccccc2)n1 ... 5.15
Cc1cc(NC(=O)Nc2ccc(F)c(F)c2)n(-c2ccccc2)n1 [ML297, reference compound] ... 6.30
Cc1cc(NC(=O)Nc2cc(Br)cs2)n(-c2ccccc2)n1 ... 5.50

As a next step, examine the compound that follows.
Request: State the recorded pEC50 for this entry: "Cc1cc(NC(=O)Nc2ccc(F)s2)n(-c2ccccc2)n1"
Result: 4.95

###

target system: GIRK1/2(I-V) (UniProt P48542+P48549, I97V)
assay procedure: TEVC in Xenopus oocytes, single mutant GIRK1/2(I-V)
stated conditions: GIRK1/2(I-V) single mutant
property: EC50 (nM)
All answers are understood in nM, so give the number only.

Request: State the recorded EC50 for this entry: "Cc1cc(NC(=O)Nc2ccc(Br)s2)n(-c2ccccc2)n1"
Result: 500

###

target system: GIRK1/2 (UniProt P48542+P48549)
Sequence (P48549 1-501): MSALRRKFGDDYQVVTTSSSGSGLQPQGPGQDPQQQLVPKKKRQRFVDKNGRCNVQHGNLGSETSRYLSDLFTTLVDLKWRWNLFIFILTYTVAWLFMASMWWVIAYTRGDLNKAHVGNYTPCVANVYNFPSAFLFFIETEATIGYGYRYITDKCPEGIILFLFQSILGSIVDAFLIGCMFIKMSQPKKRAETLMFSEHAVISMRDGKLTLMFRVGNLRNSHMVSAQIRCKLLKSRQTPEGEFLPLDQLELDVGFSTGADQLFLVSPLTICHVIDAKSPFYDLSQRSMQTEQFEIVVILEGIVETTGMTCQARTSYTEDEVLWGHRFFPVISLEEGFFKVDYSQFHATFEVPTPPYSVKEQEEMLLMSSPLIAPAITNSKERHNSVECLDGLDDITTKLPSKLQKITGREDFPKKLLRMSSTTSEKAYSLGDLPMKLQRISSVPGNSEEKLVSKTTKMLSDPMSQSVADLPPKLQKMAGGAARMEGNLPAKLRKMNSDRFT
Sequence (P48542 1-425): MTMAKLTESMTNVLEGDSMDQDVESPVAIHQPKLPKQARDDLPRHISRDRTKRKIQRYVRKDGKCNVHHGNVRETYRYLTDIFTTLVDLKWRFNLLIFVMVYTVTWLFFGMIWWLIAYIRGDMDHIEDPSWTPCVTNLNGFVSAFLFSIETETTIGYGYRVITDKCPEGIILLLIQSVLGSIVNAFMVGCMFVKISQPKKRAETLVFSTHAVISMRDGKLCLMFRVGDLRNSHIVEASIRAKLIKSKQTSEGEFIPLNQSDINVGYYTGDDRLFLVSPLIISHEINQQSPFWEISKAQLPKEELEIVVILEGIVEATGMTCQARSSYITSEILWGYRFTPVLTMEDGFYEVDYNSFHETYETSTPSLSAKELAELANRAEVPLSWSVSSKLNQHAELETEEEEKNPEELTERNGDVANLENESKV
assay procedure: two-electrode voltage clamp (TEVC) in Xenopus oocytes expressing GIRK1/2 wild-type
Type: cell-based, human GIRK1, mouse GIRK2
Set-up: expressed in transfected cells; host or cells: Xenopus laevis oocytes (cRNA injection)
stated conditions: ML297 considered 100%; read-out: EMAX at GIRK1/2, % relative to ML297
Emax vs 90%: less than gives criterion met; not less than gives criterion not met.

Please review the entries below; each comes with its answer.
Cc1cc(NC(=O)Nc2cccs2)n(-c2ccccc2)n1 [GAT1506] ... criterion not met
Cc1cc(NC(=O)Nc2ccc(F)s2)n(-c2ccccc2)n1 [GAT1575] ... criterion not met
Cc1cc(NC(=O)Nc2ccc(Br)s2)n(-c2ccccc2)n1 [GAT1508] ... criterion met
Cc1cc(NC(=O)Nc2ccc(Cl)s2)n(-c2ccccc2)n1 [GAT1501] ... criterion not met

Lab note: next molecule to report on.
Request: I'd appreciate it if you could check whether Cc1cc(NC(=O)Nc2ccc(C)s2)n(-c2ccccc2)n1 [GAT1521] has Emax smaller than 90%.
Result: criterion met
